Protein target, amino acids: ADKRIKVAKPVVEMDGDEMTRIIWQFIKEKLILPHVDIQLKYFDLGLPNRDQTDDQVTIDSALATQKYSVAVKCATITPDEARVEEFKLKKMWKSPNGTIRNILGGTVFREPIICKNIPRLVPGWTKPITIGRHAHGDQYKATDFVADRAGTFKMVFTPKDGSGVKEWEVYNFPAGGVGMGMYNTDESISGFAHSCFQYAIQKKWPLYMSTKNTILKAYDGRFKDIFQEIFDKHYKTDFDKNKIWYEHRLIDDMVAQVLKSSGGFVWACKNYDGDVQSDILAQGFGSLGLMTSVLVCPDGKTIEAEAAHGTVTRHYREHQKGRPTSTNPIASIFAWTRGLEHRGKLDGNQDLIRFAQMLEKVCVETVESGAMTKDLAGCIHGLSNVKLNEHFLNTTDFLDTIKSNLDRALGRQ
readout.kind: pIC50
pIC50 is a log-scale quantity: -log10 of the concentration expressed in molar.

Check out these entries, answers already filled in.
>  <structure.string>
C=CC(=O)N1CCN(Cc2ccc([C@H](C)Nc3ncc4c(n3)N([C@H](C)CO)C(=O)OC4)cc2)CC1

>  <pIC50>
4.90

$$$$
>  <structure.string>
C=CC(=O)N1CC2(CN(Cc3ccc([C@H](C)Nc4ncc5c(n4)N(CC(C)C)C(=O)OC5)cc3)C2)C1

>  <pIC50>
5.13

$$$$

Item: C=CC(=O)N1CC(CCc2ccc([C@H](C)Nc3ncc4c(n3)N(CC)C(=O)OC4)cc2)C1 | pIC50: 5.06

Item: C=CC(=O)N1CCN(Cc2ccc([C@H](C)Nc3ncc4c(n3)N(C(C)C)C(=O)OC4)cc2)CC1 | pIC50: 4.97

----------
This section presents compounds with their documented IC50 values.
- assayed.system: IDH1 Wild-Type (Homo sapiens, UniProt O75874)
- Sequence (O75874 whole entry): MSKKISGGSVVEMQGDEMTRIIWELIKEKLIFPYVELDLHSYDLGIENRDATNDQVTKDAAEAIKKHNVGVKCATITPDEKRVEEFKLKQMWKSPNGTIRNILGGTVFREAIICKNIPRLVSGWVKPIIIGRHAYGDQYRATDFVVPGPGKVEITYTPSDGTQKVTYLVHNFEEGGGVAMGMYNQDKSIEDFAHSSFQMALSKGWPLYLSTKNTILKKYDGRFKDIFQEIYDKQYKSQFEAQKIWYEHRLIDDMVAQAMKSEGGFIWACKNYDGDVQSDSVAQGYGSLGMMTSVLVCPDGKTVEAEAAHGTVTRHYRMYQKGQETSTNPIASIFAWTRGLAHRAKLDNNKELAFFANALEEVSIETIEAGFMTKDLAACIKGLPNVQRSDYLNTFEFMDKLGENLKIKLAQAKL
Express the result in µM but write the number alone.

Check out these entries, answers already filled in.
>  <structure.string>
C=CC(=O)N1CC2(CN(Cc3ccc([C@H](C)Nc4ncc5c(n4)N(C(C)C)C(=O)OC5)cc3)C2)C1

>  <value>
5.01

$$$$
>  <structure.string>
C=CC(=O)N1CCN(Cc2ccc([C@H](C)Nc3ncc4c(n3)N(CCF)C(=O)OC4)cc2)CC1

>  <value>
6.58

$$$$

Now look at this one.
IDH1 Wild-Type (Homo sapiens, UniProt O75874) IC50 of C=CC(=O)N1CC(OCc2ccc([C@H](C)Nc3ncc4c(n3)N(CC)C(=O)OC4)cc2)C1 is 0.484

----------
- assayed.system: IDH2/R172K (Homo sapiens, UniProt P48735, R172K)
- Construct: His-tag (N)
- Sequence (P48735 40-452 R172K): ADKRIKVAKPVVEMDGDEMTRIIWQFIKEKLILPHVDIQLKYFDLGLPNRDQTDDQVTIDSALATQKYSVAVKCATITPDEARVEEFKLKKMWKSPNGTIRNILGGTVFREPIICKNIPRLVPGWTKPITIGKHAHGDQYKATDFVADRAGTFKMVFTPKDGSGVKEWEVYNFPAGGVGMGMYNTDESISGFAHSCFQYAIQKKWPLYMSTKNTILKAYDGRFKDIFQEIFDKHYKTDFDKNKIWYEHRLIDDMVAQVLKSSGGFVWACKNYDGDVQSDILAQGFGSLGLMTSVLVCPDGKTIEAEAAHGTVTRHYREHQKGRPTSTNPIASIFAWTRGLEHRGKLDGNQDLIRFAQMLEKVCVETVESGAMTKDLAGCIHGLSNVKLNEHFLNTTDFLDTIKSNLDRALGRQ
- procedure.summary: Biochemical assay for IDH2 R172K mutant enzyme (2HG by RapidFire MS)
- condition.context: mean ± standard deviation of the mean; 90 minutes reaction
This section presents compounds with their documented pIC50 values.
pIC50 is a log-scale quantity: -log10 of the concentration expressed in molar.

>  <compound>
C=CC(=O)N1CCN(Cc2ccc([C@H](C)Nc3ncc4c(n3)N([C@H](C)CO)C(=O)OC4)cc2)CC1 [Example 11]

>  <assayed.system>
IDH2/R172K (Homo sapiens, UniProt P48735, R172K)

>  <value>
5.11

$$$$
>  <compound>
C=CC(=O)N1CCN(Cc2ccc([C@H](C)Nc3ncc4c(n3)N(CCF)C(=O)OC4)cc2)CC1 [Example 21]

>  <assayed.system>
IDH2/R172K (Homo sapiens, UniProt P48735, R172K)

>  <value>
4.98

$$$$

Now look at this one.
Item: C=CC(=O)N1CC2(CN(Cc3ccc([C@H](C)Nc4ncc5c(n4)N(C(C)C)C(=O)OC5)cc3)C2)C1 [Example 15] | pIC50: 4.98

----------
- assayed.system: IDH2/R172K (Homo sapiens, UniProt P48735, R172K)
- Construct: His-tag (N)
- procedure.summary: Biochemical assay for IDH2 R172K mutant enzyme (2HG by RapidFire MS)
- condition.context: mean ± standard deviation of the mean; 90 minutes reaction
readout.kind: IC50 (nM)
Express the result in nM but write the number alone.

Check out these entries, answers already filled in.
>  <structure.string>
C=CC(=O)N1CC2(CN(Cc3ccc([C@H](C)Nc4ncc5c(n4)N(CC(C)C)C(=O)OC5)cc3)C2)C1

>  <IC50 [nM]>
13600

$$$$
>  <structure.string>
C=CC(=O)N1CCN(Cc2ccc([C@H](C)Nc3ncc4c(n3)N(C(C)C)C(=O)OC4)cc2)CC1

>  <IC50 [nM]>
1670

$$$$

IDH2/R172K (Homo sapiens, UniProt P48735, R172K) IC50 of C=CC(=O)N1CC=C(COc2ccc([C@H](C)Nc3ncc4c(n3)N(CC)C(=O)OC4)cc2)C1 is 469

----------
- assayed.system: IDH2/R140Q (Homo sapiens, UniProt P48735, R140Q)
- Construct: His-tag (N)
- procedure.summary: Biochemical assay for IDH2 R140Q mutant enzyme (2HG by RapidFire MS)
- condition.context: mean ± standard deviation of the mean; 90 minutes reaction
This section presents molecules with their documented IC50 values.

Check out these entries, answers already filled in.
>  <molecule>
C=CC(=O)N1CCN(Cc2ccc([C@H](C)Nc3ncc4c(n3)N(CCF)C(=O)OC4)cc2)CC1 [Example 21]

>  <IC50>
> 100 µM

$$$$
>  <molecule>
C=CC(=O)N1CCC2(CC1)CN(Cc1ccc([C@H](C)Nc3ncc4c(n3)N(C(C)C)C(=O)OC4)cc1)C2 [Example 8]

>  <IC50>
> 100 µM

$$$$
>  <molecule>
C=CC(=O)N1CCN(Cc2ccc([C@H](C)Nc3ncc4c(n3)N(CC(C)C)C(=O)OC4)cc2)CC1 [Example 3]

>  <IC50>
59.5 µM

$$$$

Item: C=CC(=O)N1CCN(c2ccc([C@H](C)Nc3ncc4c(n3)N(C(C)C)C(=O)OC4)cc2)CC1 [Example 6] | IC50: > 100 µM

Item: C=CC(=O)N1CCN(Cc2ccc([C@H](C)Nc3ncc4c(n3)N(CC)C(=O)OC4)cc2)CC1 [Example 2] | IC50: 73.9 µM

Item: C=CC(=O)N1CC(CCc2ccc([C@H](C)Nc3ncc4c(n3)N(CC)C(=O)OC4)cc2)C1 [Example 7] | IC50: 10.9 µM

Item: C=CC(=O)N1CCC(N(C)Cc2ccc([C@H](C)Nc3ncc4c(n3)N(CC)C(=O)OC4)cc2)CC1 [Example 12] | IC50: > 100 µM

Item: C=CC(=O)N1CC=C(COc2ccc([C@H](C)Nc3ncc4c(n3)N(CC)C(=O)OC4)cc2)C1 [Example 22] | IC50: 11.6 µM

Item: C=CC(=O)N1CCN(Cc2ccc([C@H](C)Nc3ncc4c(n3)N(CC)C(=O)OC4)cc2F)CC1 [Example 16] | IC50: 49 µM

----------
- assayed.system: IDH1/R132C (Homo sapiens, UniProt O75874, R132C)
- Construct: His-tag (N)
- Sequence (O75874 whole entry R132C): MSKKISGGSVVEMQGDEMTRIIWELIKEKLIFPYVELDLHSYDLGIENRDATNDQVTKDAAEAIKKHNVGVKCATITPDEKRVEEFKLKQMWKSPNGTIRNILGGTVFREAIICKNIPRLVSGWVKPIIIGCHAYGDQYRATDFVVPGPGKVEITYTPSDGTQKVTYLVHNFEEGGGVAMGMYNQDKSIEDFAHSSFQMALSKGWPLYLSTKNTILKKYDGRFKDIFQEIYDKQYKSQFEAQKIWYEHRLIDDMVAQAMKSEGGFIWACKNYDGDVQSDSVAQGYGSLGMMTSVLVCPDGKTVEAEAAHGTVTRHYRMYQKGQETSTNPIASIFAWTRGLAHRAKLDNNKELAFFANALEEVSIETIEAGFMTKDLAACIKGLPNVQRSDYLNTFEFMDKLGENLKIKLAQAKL
- procedure.summary: Biochemical assay for IDH1 R132C mutant enzyme (2HG by RapidFire MS);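 further: the IC50 [structure] column is the IDH1 R132C enzyme IC50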
- condition.context: mean ± standard deviation of the mean; 90 minutes reaction
readout.kind: log10(IC50) (log10 of the value in nM)
Plainly stated, the numbers are log10 of IC50 given in nM.

>  <compound>
C=CC(=O)N1CC2(CN(Cc3ccc([C@H](C)Nc4ncc5c(n4)N(CC(C)C)C(=O)OC5)cc3)C2)C1

>  <assayed.system>
IDH1/R132C (Homo sapiens, UniProt O75874, R132C)

>  <log10(IC50)>
1.72

$$$$
>  <compound>
C=CC(=O)N1CC(N(C)Cc2ccc([C@H](C)Nc3ncc4c(n3)N(CC)C(=O)OC4)cc2)C1

>  <assayed.system>
IDH1/R132C (Homo sapiens, UniProt O75874, R132C)

>  <log10(IC50)>
2.49

$$$$
>  <compound>
C=CC(=O)N1CC(OCc2ccc([C@H](C)Nc3ncc4c(n3)N(CC)C(=O)OC4)cc2)C1

>  <assayed.system>
IDH1/R132C (Homo sapiens, UniProt O75874, R132C)

>  <log10(IC50)>
2.12

$$$$
>  <compound>
C=CC(=O)N1CCC2(CC1)CN(Cc1ccc([C@H](C)Nc3ncc4c(n3)N(C(C)C)C(=O)OC4)cc1)C2

>  <assayed.system>
IDH1/R132C (Homo sapiens, UniProt O75874, R132C)

>  <log10(IC50)>
2.32

$$$$

IDH1/R132C (Homo sapiens, UniProt O75874, R132C) log10(IC50) of C=CC(=O)N1CCN(Cc2ccc([C@H](C)Nc3ncc4c(n3)N(C(C)C)C(=O)OC4)cc2)CC1 is 1.42

IDH1/R132C (Homo sapiens, UniProt O75874, R132C) log10(IC50) of C=CC(=O)N1CCN(Cc2ccc([C@H](C)Nc3ncc4c(n3)N(CCF)C(=O)OC4)cc2)CC1 is 2.69

IDH1/R132C (Homo sapiens, UniProt O75874, R132C) log10(IC50) of C=CC(=O)N1CC(COc2ccc([C@H](C)Nc3ncc4c(n3)N(C(C)C)C(=O)OC4)cc2)C1 is 1.80

IDH1/R132C (Homo sapiens, UniProt O75874, R132C) log10(IC50) of C=CC(=O)N1CCN(Cc2ccc([C@H](C)Nc3ncc4c(n3)N(CC(F)F)C(=O)OC4)cc2)CC1 is 2.28

IDH1/R132C (Homo sapiens, UniProt O75874, R132C) log10(IC50) of C=CC(=O)N1CCN(Cc2ccc([C@H](C)Nc3ncc4c(n3)N(CC)C(=O)OC4)cc2)CC1 [Example 2] is 2.01

IDH1/R132C (Homo sapiens, UniProt O75874, R132C) log10(IC50) of C=CC(=O)N1CCN(c2ccc([C@H](C)Nc3ncc4c(n3)N(CC)C(=O)OC4)cc2)CC1 is 2.28

IDH1/R132C (Homo sapiens, UniProt O75874, R132C) log10(IC50) of C=CC(=O)N1CCN(Cc2ccc([C@H](C)Nc3ncc4c(n3)N([C@H](C)CO)C(=O)OC4)cc2)CC1 is 2.08

IDH1/R132C (Homo sapiens, UniProt O75874, R132C) log10(IC50) of C=CC(=O)N1CCN(Cc2ccc([C@H](C)Nc3ncc4c(n3)N(CC)C(=O)OC4)cc2)CC1 [Example 23] is 2.37

IDH1/R132C (Homo sapiens, UniProt O75874, R132C) log10(IC50) of C=CC(=O)N1CC2(CN(Cc3ccc([C@H](C)Nc4ncc5c(n4)N(C(C)C)C(=O)OC5)cc3)C2)C1 is 2.04

Reference source: patent US10253041B2
